Each entry below lists one item and its recorded % Inhibition value.
test system: P. falciparum stage V gametocytes; design: BacTiter-Glo ATP luminescence viability of purified stage V gametocytes in 384-well plates, per cent inhibition versus DMSO; settings: 48 h, 5 µM; inhibitor
Among all 13,000 compounds or so, about 3,200 (25%) showed an effect of 50% or more. The list shows a part of the results.
Give the value in % but do not write % after it.

For orientation, consider the following solved cases.
{"columns": ["Structure as smiles", "% Inhibition (%)"],
 "data": [
  ["CN(C)[C@@H]1C(=O)C(C(N)=O)=C(O)[C@@]2(O)C(=O)C3=C(O)c4c(O)ccc(C#Cc5ccccn5)c4C[C@H]3C[C@@H]12", 7.454],
  ["Cc1c(C)c2c(c(C)c1O)CC[C@@](C)(C(=O)N1CCC(CCN3CCC(c4c[nH]c5ccccc45)CC3)CC1)O2", 69.88],
  ["O=C(CCCCCNC(=O)c1ccc(O)c(-c2ccc(Cl)c(Cl)c2)c1)NCCN1CCCCC1", 8.201],
  ["Cc1ccc(NS(=O)(=O)c2cccs2)cc1-c1cccc(C(=O)Nc2ccc(F)cc2)c1", -57.86],
  ["FC(F)(F)c1cnc(Sc2nnc(-c3ccco3)o2)c(Cl)c1", -49.8]
]}

Query: Which % Inhibition is reported for this compound? CCN1CCN(c2cc(C)c3cc(NC(=O)c4ccc(Br)o4)ccc3n2)CC1
Reply: 1.193

Query: Next up: FC(F)(F)c1ccc2nccc(NN=Cc3ccccc3)c2c1
Reply: -3.615

Query: Next up: O=C(c1ccccc1)N(Cc1ccccc1-c1ccc(CNCCc2ccccc2)cc1)C1CCN(Cc2ccccc2)CC1
Reply: 62.45

Query: Next up: O=C(NC1CCCCC1)N(Cc1ccccc1-c1ccc(CNCCc2ccccc2)cc1)C1CCN(Cc2ccccc2)CC1
Reply: 106.9

Query: Next up: CN(C)CCCOc1cc(NC(=O)Nc2ccc(-c3ccncc3)c3ccccc23)ccc1I
Reply: 21.74

Query: Next up: CN(C)c1ccc(N2C(N)=NC(N)=NC23CCCC3)cc1
Reply: 9.069
